Target: Neh1 (residues 445–523, Neh1‐ΔLZIP) domain of NRF2 (Homo sapiens)
Sequence (Q16236 445-523, stated change not applied): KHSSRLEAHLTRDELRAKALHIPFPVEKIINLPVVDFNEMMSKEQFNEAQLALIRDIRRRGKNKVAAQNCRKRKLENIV
assay.endpoint: Kd

Query: What Kd appears in the records for this compound with Neh1 (residues 445–523, Neh1‐ΔLZIP) domain of NRF2 (Homo sapiens)? "O=C(O)COc1ccc(-c2ccccc2)cc1Br"
Reply: 1700 µM
